Assay: Antiproliferative activity against human MEF cells assessed as reduction in cell viability by MTT assay
Assay type: functional, cell-based
MEASURED_QUANTITY: IC50
Remember to follow the number with its unit.

Asked: Fill in: IC50 of `CC1=C(C)C(=O)C(C(C)(C)CC(=O)N(CCCCSC[C@H]2O[C@@H](n3cnc4c(N)ncnc43)[C@H](O)[C@@H]2O)Cc2cccc(-c3ccc(Cl)cc3)c2)=C(C)C1=O` is ___
Given back: 28.4 µM
